assay-method-text: Cmax in fasting Wistar rat at 30 mg/kg, po
Assay type: ADME, organism-based
Set-up: dose 30 mg/kg, route oral
measurement-parameters: in vivo
property-label: Cmax (µg/mL)

query-smiles	meas-value
CCO[C@@H](Cc1ccc(OCCc2nc(-c3ccc(C)s3)oc2C)cc1)C(=O)O	91.7

====

experimental-target: Peroxisome proliferator-activated receptor gamma (Homo sapiens)
assay-method-text: Transactivation of human PPARgamma expressed in human HepG2 cells co-transfected with PPRE3-TK-Luc by luciferase reporter gene assay relative to Rosiglitazone
Assay type: cell-based
// reported Emax per item

query-smiles	experimental-target	Emax [%]
CCO[C@@H](Cc1ccc(OCCc2nc(-c3sccc3C)oc2C)cc1)C(=O)O	Peroxisome proliferator-activated receptor gamma (Homo sapiens)	192
CCO[C@@H](Cc1ccc(OCc2nc(-c3ccc(C)s3)oc2C)cc1)C(=O)O	Peroxisome proliferator-activated receptor gamma (Homo sapiens)	120
CCO[C@@H](Cc1ccc(OCCc2nc(-c3cccs3)oc2C)cc1)C(=O)O	Peroxisome proliferator-activated receptor gamma (Homo sapiens)	104
CCO[C@@H](Cc1ccc(OCc2nc(-c3sccc3C)oc2C)cc1)C(=O)O	Peroxisome proliferator-activated receptor gamma (Homo sapiens)	88
CCO[C@@H](Cc1ccc(OCc2nc(-c3ccc(-c4ccccc4)s3)oc2C)cc1)C(=O)O	Peroxisome proliferator-activated receptor gamma (Homo sapiens)	104
CCO[C@@H](Cc1ccc(OCc2nc(-c3ccsc3)oc2C)cc1)C(=O)O	Peroxisome proliferator-activated receptor gamma (Homo sapiens)	99
CCO[C@@H](Cc1ccc(OCCc2nc(-c3ccsc3)oc2C)cc1)C(=O)O	Peroxisome proliferator-activated receptor gamma (Homo sapiens)	87
CCO[C@@H](Cc1ccc(OCc2nc(-c3cccs3)oc2C)cc1)C(=O)O	Peroxisome proliferator-activated receptor gamma (Homo sapiens)	107
CCO[C@@H](Cc1ccc(OCCc2nc(-c3ccc(C)s3)oc2C)cc1)C(=O)O	Peroxisome proliferator-activated receptor gamma (Homo sapiens)	165
